These entries and their values trace back to ChEMBL document CHEMBL1817572.

Biological target: Vasopressin V2 receptor (Homo sapiens)
Sequence (P30518 whole entry): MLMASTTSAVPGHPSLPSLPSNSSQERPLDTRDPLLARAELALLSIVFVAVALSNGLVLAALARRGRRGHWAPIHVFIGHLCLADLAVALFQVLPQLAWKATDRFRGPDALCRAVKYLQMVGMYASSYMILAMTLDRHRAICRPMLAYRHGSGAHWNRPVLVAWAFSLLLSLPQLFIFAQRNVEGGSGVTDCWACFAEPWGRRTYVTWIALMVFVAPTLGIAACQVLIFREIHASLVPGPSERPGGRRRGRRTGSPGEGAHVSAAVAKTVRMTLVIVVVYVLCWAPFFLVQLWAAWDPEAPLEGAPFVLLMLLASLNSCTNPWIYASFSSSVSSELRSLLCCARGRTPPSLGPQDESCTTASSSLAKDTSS
Assay: Agonist activity at recombinant human vasopressin V2 receptor expressed in HEK293 cells by luciferase reporter gene assay
Assay type: functional, cell-based
Conditions: hek293; read-out: EC50
pEC50: −log10 of the molar value. Bridge positions count the residues as written; N and C are the ends. Square brackets hold non-standard residues; d marks the D form. Peptide text beside a SMILES is read from it. Orn(Pr) = CCCNCCC[C@H](N)C(=O)O; Orn = NCCC[C@H](N)C(=O)O; Dab = NCC[C@H](N)C(=O)O
Entries and their pEC50 values follow.

Below, each entry is followed by its recorded pEC50 result.
• CC[C@H](C)[C@@H]1NC(=O)[C@H](Cc2ccccc2)NC(=O)[C@@H](N)CSSC[C@@H](C(=O)N2CCC[C@H]2C(=O)N[C@@H](CCN)C(=O)NCC(N)=O)NC(=O)[C@H](CC(N)=O)NC(=O)[C@H](CC(N)=O)NC1=O (H-CFINNCP[Dab]G-NH2; disulfide 1-6) = < 5.00
• CCCNCCC[C@H](NC(=O)[C@@H]1CCCN1C(=O)[C@@H]1CSSC[C@H](N)C(=O)N[C@@H](Cc2ccccc2)C(=O)N[C@@H]([C@@H](C)CC)C(=O)N[C@@H](CC(N)=O)C(=O)N[C@@H](CC(N)=O)C(=O)N1)C(=O)NCC(N)=O (H-CFINNCP[Orn(Pr)]G-NH2; disulfide 1-6) = < 5.00

Given CC[C@H](C)[C@@H]1NC(=O)[C@H](Cc2ccccc2)NC(=O)[C@@H](N)CSSC[C@@H](C(=O)N2CCC[C@H]2C(=O)N[C@@H](CCCN)C(=O)NCC(N)=O)NC(=O)[C@H](CC(N)=O)NC(=O)[C@H](CC(N)=O)NC1=O (H-CFINNCP[Orn]G-NH2; disulfide 1-6) , state its recorded pEC50.
< 5.00
